assay remarks: Solubility by HPLC method
Format: physicochemical
test parameters: aqueous buffer, 0.1M sodium acetate buffer pH 5.0, 24 hours, room temperature
Known solubility at 24 h of a selection of molecules

molecule | solubility at 24 h / mg/mL
CC[C@@]1(O)C(=O)OCc2c1cc1n(c2=O)C(OCCO)c2cc3ccccc3nc2-1 (stereo partly drawn) [Example 26, 5-(2'-Hydroxyethoxy)camptothecin] | 0.8
CCOC1c2cc3c(O)cccc3nc2-c2cc3c(c(=O)n21)COC(=O)[C@]3(O)CC (stereo partly drawn) [Example 11, 5-Ethoxy-9-hydroxycamptothecin] | 0.17
CC[C@@]1(O)C(=O)OCc2c1cc1n(c2=O)C(OCC(F)(F)F)c2cc3cc(O)ccc3nc2-1 (stereo partly drawn) [Example 27, 10-Hydroxy-5-trifluoroethoxycamptothecin] | 0.5

---

assay remarks: Pharmacokinetics at MTD
Type: in vivo, Swiss albino mice
test parameters: mouse, ip, intraperitoneal, plasma
Known k el of a selection of compounds
measured metric: k el (s⁻¹)

compound | measured metric | observed measurement
CC[C@@]1(O)C(=O)OCc2c1cc1n(c2=O)C(OCC(F)(F)F)c2cc3cc(O)ccc3nc2-1 (stereo partly drawn) [Example 27, 10-Hydroxy-5-trifluoroethoxycamptothecin] | k el | 8.06e-05
CC[C@@]1(O)C(=O)OCc2c1cc1n(c2=O)C(OCCO)c2cc3ccccc3nc2-1 (stereo partly drawn) [Example 26, 5-(2'-Hydroxyethoxy)camptothecin] | k el | 0.000106
CCOC1c2cc3c(O)cccc3nc2-c2cc3c(c(=O)n21)COC(=O)[C@]3(O)CC (stereo partly drawn) [Example 11, 5-Ethoxy-9-hydroxycamptothecin] | k el | 0.000103

---

assay remarks: Solubility by routine method
Format: physicochemical
test parameters: deionized water, 37°C
Known solubility at 10 min of a selection of compounds

compound | solubility at 10 min
CC[C@@]1(O)C(=O)OCc2c1cc1n(c2=O)C(OCCO)c2cc3ccccc3nc2-1 (stereo partly drawn) [Example 26, 5-(2'-Hydroxyethoxy)camptothecin] | 6000 µg/mL
CCOC1c2cc3c(O)cccc3nc2-c2cc3c(c(=O)n21)COC(=O)[C@]3(O)CC (stereo partly drawn) [Example 11, 5-Ethoxy-9-hydroxycamptothecin] | < 1000 µg/mL
CC[C@@]1(O)C(=O)OCc2c1cc1n(c2=O)C(OCC(F)(F)F)c2cc3cc(O)ccc3nc2-1 (stereo partly drawn) [Example 27, 10-Hydroxy-5-trifluoroethoxycamptothecin] | 2000 to 3000 µg/mL

---

Known Cmax of a selection of compounds
assay remarks: Pharmacokinetics at MTD
Type: in vivo, Swiss albino mice
test parameters: mouse, ip, intraperitoneal, plasma
measured metric: Cmax (µM)

compound | measured metric | observed measurement
CCOC1c2cc3c(O)cccc3nc2-c2cc3c(c(=O)n21)COC(=O)[C@]3(O)CC (stereo partly drawn) [Example 11, 5-Ethoxy-9-hydroxycamptothecin] | Cmax | 6.95
CC[C@@]1(O)C(=O)OCc2c1cc1n(c2=O)C(OCCO)c2cc3ccccc3nc2-1 (stereo partly drawn) [Example 26, 5-(2'-Hydroxyethoxy)camptothecin] | Cmax | 264
CC[C@@]1(O)C(=O)OCc2c1cc1n(c2=O)C(OCC(F)(F)F)c2cc3cc(O)ccc3nc2-1 (stereo partly drawn) [Example 27, 10-Hydroxy-5-trifluoroethoxycamptothecin] | Cmax | 7.4

---

Known IC (TGI) of a selection of molecules
Tested on: H 460
assay remarks: NCI in vitro 60 human tumor cell line assay
Assay type: cell-based
test parameters: Homo sapiens, NCI-H460, 48 h, read-out: Total Growth Inhibition (TGI)

molecule | test system | IC (TGI) (µM)
CC[C@@]1(O)C(=O)OCc2c1cc1n(c2=O)C(OCCOC)c2cc3ccccc3nc2-1 (stereo partly shown) [Example 43, 5-(2'-methoxyethoxy)camptothecin] | H 460 | 14.2
CC[C@@]1(O)C(=O)OCc2c1cc1n(c2=O)C(OCC(F)(F)F)c2cc3cc(O)ccc3nc2-1 (stereo partly shown) [Example 27, 10-Hydroxy-5-trifluoroethoxycamptothecin] | H 460 | 5.09
CC[C@@]1(O)C(=O)OCc2c1cc1n(c2=O)C(OCCO)c2cc3ccccc3nc2-1 (stereo partly shown) [Example 26, 5-(2'-Hydroxyethoxy)camptothecin] | H 460 | 1
CC[C@@]1(O)C(=O)OCc2c1cc1n(c2=O)C(OCC(F)(F)F)c2cc3c([N+](=O)[O-])cccc3nc2-1 (stereo partly shown) [Example 28, 9-Nitro-5-trifluoroethoxycamptothecin] | H 460 | 1.22

---

Known AUC(0-t) of a selection of compounds
assay remarks: Pharmacokinetics at MTD
Assay type: in vivo, Swiss albino mice
test parameters: mouse, ip, intraperitoneal, DMSO:water (50:50), plasma, read-out: AUC0-1
Description: 3. Pharmacokinetics at MTD: All studies were carried out in Swiss albino mice in the weight range 35-40 g. The animals were fasted overnight prior to dosage of the drug and were fed 3 hours after dosing. The animals were dosed intraperitonially as a solution in DMSO:water (50:50; v/v). […] Plasma samples were separated and analyzed by HPLC. […] Peak area of the drug was used for quantification. […]
measured metric: AUC(0-t) (µM·h)

compound | measured metric | observed measurement
CCOC1c2cc3c(O)cccc3nc2-c2cc3c(c(=O)n21)COC(=O)[C@]3(O)CC (stereo partly drawn) [Example 11, 5-Ethoxy-9-hydroxycamptothecin] | AUC(0-t) | 18.5
CC[C@@]1(O)C(=O)OCc2c1cc1n(c2=O)C(OCCO)c2cc3ccccc3nc2-1 (stereo partly drawn) [Example 26, 5-(2'-Hydroxyethoxy)camptothecin] | AUC(0-t) | 562
CC[C@@]1(O)C(=O)OCc2c1cc1n(c2=O)C(OCC(F)(F)F)c2cc3cc(O)ccc3nc2-1 (stereo partly drawn) [Example 27, 10-Hydroxy-5-trifluoroethoxycamptothecin] | AUC(0-t) | 23.1

---

assay remarks: MTD in Swiss albino mice (single dose)
test parameters: mouse, in vivo, ip, intraperitoneal, 14 days observation
Known MTD at 336 h of a selection of compounds
measured metric: MTD at 336 h (mg/kg)

compound | measured metric | measurement units | observed measurement
CCOC1c2cc3c(O)cccc3nc2-c2cc3c(c(=O)n21)COC(=O)[C@]3(O)CC (stereo partly drawn) [Example 11, 5-Ethoxy-9-hydroxycamptothecin] | MTD at 336 h | mg/kg | 400
CC[C@@]1(O)C(=O)OCc2c1cc1n(c2=O)C(OCCO)c2cc3ccccc3nc2-1 (stereo partly drawn) [Example 26, 5-(2'-Hydroxyethoxy)camptothecin] | MTD at 336 h | mg/kg | 200
CC[C@@]1(O)C(=O)OCc2c1cc1n(c2=O)C(OCC(F)(F)F)c2cc3cc(O)ccc3nc2-1 (stereo partly drawn) [Example 27, 10-Hydroxy-5-trifluoroethoxycamptothecin] | MTD at 336 h | mg/kg | 400

---

assay remarks: Lactone stability in whole blood (HPLC)
Assay type: in vitro ADME
test parameters: human, whole blood, 100 μM, 37°C, lactone peak area relative to zero time (100%); read-out: Lactone Stability in Whole Blood (after 3 hours)

compound | measurement units | remaining at 3 h, 100 µM
CCOC1c2cc3c(O)cccc3nc2-c2cc3c(c(=O)n21)COC(=O)[C@]3(O)CC (single isomer, unassigned) [Example 11 Diastereomer A, 5-Ethoxy-9-hydroxycamptothecin] | % | 3.73
